Molecular target: NF-kappa-B essential modulator (Homo sapiens, UniProt Q9Y6K9)
Sequence (Q9Y6K9 whole entry): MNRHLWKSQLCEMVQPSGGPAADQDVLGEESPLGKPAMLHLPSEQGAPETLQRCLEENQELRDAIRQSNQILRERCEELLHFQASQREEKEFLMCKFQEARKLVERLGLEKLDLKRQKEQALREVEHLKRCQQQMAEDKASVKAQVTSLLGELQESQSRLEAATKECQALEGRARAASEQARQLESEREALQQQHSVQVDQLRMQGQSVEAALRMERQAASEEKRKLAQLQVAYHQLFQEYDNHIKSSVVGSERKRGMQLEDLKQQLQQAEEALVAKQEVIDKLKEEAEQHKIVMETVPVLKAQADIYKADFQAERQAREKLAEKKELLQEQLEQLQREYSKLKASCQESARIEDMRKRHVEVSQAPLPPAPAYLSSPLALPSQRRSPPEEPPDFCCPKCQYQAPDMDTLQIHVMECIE
Measurement type: pKd
Numbers only, as −log10 of the molar value.

input: Respond only with pKd recorded for Cc1ccc([C@@H]2[C@H]3C=C(C=O)[C@@H](c4ccc(C)cc4)[C@H]([N+](=O)[O-])[C@@H]3C[C@]23C(=O)N(C)c2ccccc23)cc1
output: 6.72

* * *

Experiment: Cytotoxicity against human HUVEC cells assessed as reduction in cell viability
Format: toxicity, cell-based
Measurement type: EC50 (µM)
One number for each entry, in µM.

input: Respond only with EC50 recorded for COc1ccc(Cn2nnc3c2[C@]2(CC[C@H]3OC(=O)NC(C)C)CO2)cc1
output: 0.094

These measurements were taken from ChEMBL document CHEMBL5096153.
